TEST SUMMARY: Brain-to-plasma ratio of Compound C after oral gavage or intranasal administration (Example 5)
Format: in vivo, Sprague-Dawley rats
CONDITION PARAMETERS: Sprague-Dawley, rat, brain, other: intranasal, 5 mg/kg, 5 mg/kg intranasal dose; 10 min; read-out: Brain Conc.
RESULT TYPE: concentration at 10 min (ng/g)
Numeric only. Scale: ng/g

Q: // returns reported concentration at 10 min for input CN[C@@H](C)C/C=C/c1cncc(OC(C)C)c1 [Compound C]
Ans: 1340

----------
TEST SUMMARY: Brain-to-plasma ratio after oral gavage or intranasal administration (Example 4)
Format: in vivo, Sprague-Dawley rats
CONDITION PARAMETERS: Sprague-Dawley, rat, in vivo, 10 mg/kg, Group 1; OG, 10 mg/kg; 60 min; read-out: Plasma Conc.
RESULT TYPE: concentration at 60 min (ng/mL)
Hi! Could you send only the number? It should be in ng/mL, unit omitted.

Q: What concentration at 60 min value was documented for this compound, CN[C@@H](C)C/C=C/c1cncc(OC)c1 ?
Ans: 158

----------
TEST SUMMARY: Brain-to-plasma ratio after oral gavage or intranasal administration (Example 4)
Type: in vivo, Sprague-Dawley rats
CONDITION PARAMETERS: Sprague-Dawley, rat, in vivo, po, 5 mg/kg, Average brain-to-plasma ratio
RESULT TYPE: Kp at 1 h
Reply: number alone, nothing else.

Q: State the recorded Kp at 1 h for this entry: CN[C@@H](C)C/C=C/c1cncc(OC)c1
Ans: 3.38

----------
TEST SUMMARY: Brain-to-plasma ratio of Compound C after oral gavage or intranasal administration (Example 5)
Format: in vivo, Sprague-Dawley rats
CONDITION PARAMETERS: Sprague-Dawley, rat, brain homogenate, other: intranasal, 1 mg/kg, 1 mg/kg intranasal dose; 10 min; read-out: Brain Conc.
RESULT TYPE: concentration at 10 min (ng/mL)
Numbers only; they are read as ng/mL.

Q: Name the recorded concentration at 10 min for CN[C@@H](C)C/C=C/c1cncc(OC(C)C)c1 .
Ans: 47.6

----------
TEST SUMMARY: Brain-to-plasma ratio of Compound C after oral gavage or intranasal administration (Example 5)
Assay type: in vivo, Sprague-Dawley rats
CONDITION PARAMETERS: Sprague-Dawley, rat, brain/plasma, inhaled or intranasal, 5 mg/kg, 5 mg/kg intranasal dose; 60 min; read-out: Brain-to-Plasma Ratio
Description: Three treatment groups of nine rats each were used (see Study Design, Table 9). […] The animals were housed up to three per cage and identified by cage labels. A single room was used for this study. […] Food was withheld from the animals for a minimum of 12 hours before the study and during the study, and was returned at 4 hours post-dose. […] Brain samples were thawed and weighed. […] After homogenation, the volume of each sample was recorded and the samples were frozen at −80° C. until analysis. […]
RESULT TYPE: Kp at 1 h
Reply: number alone, nothing else.

Q: // lookup Kp at 1 h for CN[C@@H](C)C/C=C/c1cncc(OC(C)C)c1
Ans: 2.03

----------
TEST SUMMARY: Brain-to-plasma ratio of Compound C after oral gavage or intranasal administration (Example 5)
Assay type: in vivo, Sprague-Dawley rats
CONDITION PARAMETERS: Sprague-Dawley, rat, plasma, other: intranasal, 5 mg/kg, intranasal 5 mg/kg; 10 minutes; read-out: Average plasma levels
RESULT TYPE: concentration at 10 min (ng/mL)
State the answer as a number, implicitly in ng/mL.

Q: Form field: reported concentration at 10 min of CN[C@@H](C)C/C=C/c1cncc(OC(C)C)c1
Ans: 1460
